- test: Measurement of LogP values by HPLC on reversed phase columns (EEC directive 79/831 Annex V.A8)
- Type: physicochemical
Marks after values point to notes of the source that are not given here.
Consider the following compounds and their measured LogP readings.

Here's what some known entries look like.
N#Cc1cncn1CC(O)(Cc1ccccc1F)C1(Cl)CC1 (single isomer, unassigned) [Example I-133] = 2.59^[a]
OC(Cc1ccc(Cl)cc1F)(Cn1cncc1Cl)C1(Cl)CC1 (single isomer, unassigned) [Example I-113] = 2.54^[a]
CC(C)(Cl)C(=O)Cn1cncc1C#N [XVII-8] = 1.65^[a]
N#Cc1cncn1CC(O)(Cc1ccccc1F)C1(Cl)CC1 (single isomer, unassigned) [Example I-132] = 2.59^[a]

Query: LogP; subject: N#Cc1cncn1CC(O)(Cc1ccncc1Br)C1(Cl)CC1 (racemic) [Example I-46]
1.94^[a]

Query: LogP; subject: N#Cc1cncn1CC(O)(Cc1ccc(Oc2ccc(Cl)cc2)cc1Cl)C1(Cl)CC1 (racemic) [Example I-53]
4.54^[a]

Query: LogP; subject: O=C(Cc1ccccc1F)c1cncn1CC(O)(Cc1ccccc1F)C1(Cl)CC1 (racemic) [Example I-134]
3.60^[a]

---

- test: Measurement of LogP values by HPLC on reversed phase columns (EEC directive 79/831 Annex V.A8)
- Type: physicochemical
- condition info: method [a]: LC-UV, acidic range, 0.1% formic acid in water and acetonitrile as eluent; Table 1
- Procedure: Measurement of Log P values was performed as outlined above.
quantity measured: chromatographic logP
Reply with just the number.

OC(Cc1cccnc1Cl)(Cn1cncc1Cl)C1(Cl)CC1 (centres unmarked) = 1.57
Cc1cc(F)ccc1CC(O)(Cn1cncc1Cl)C1(Cl)CC1 (centres unmarked) = 2.46
COC(Cc1ccc(Cl)cc1F)(Cn1cncc1C#N)C1CC1 (centres unmarked) = 3.31
OC(Cc1cccc(Cl)c1Cl)(Cn1cncc1Cl)C1(Cl)CC1 (centres unmarked) = 2.69

Query: chromatographic logP; subject: N#Cc1cncn1CC(O)(Cc1ccncc1F)C1(Cl)CC1 (centres unmarked)
1.62

---

- test: Measurement of LogP values by HPLC on reversed phase columns (EEC directive 79/831 Annex V.A8)
- Assay type: physicochemical
- condition info: method [a]: LC-UV, acidic range, 0.1% formic acid in water and acetonitrile as eluent; Table 1
- Procedure: Measurement of Log P values was performed as outlined above.
quantity measured: chromatographic logP
Reply with just the number.

OC(Cc1ccnc(Cl)c1Cl)(Cn1cncc1Cl)C1(Cl)CC1 (stereo not drawn) = 2.08

For the next question, use this compound.
Query: chromatographic logP; subject: N#Cc1cncn1CC(O)(Cc1ccc(Br)cc1F)C1(Cl)CC1 (stereo not drawn)
3.24

---

- test: Measurement of LogP values by HPLC on reversed phase columns (EEC directive 79/831 Annex V.A8)
- Assay type: physicochemical
- condition info: method [a]: LC-UV, acidic range, 0.1% formic acid in water and acetonitrile as eluent; Table 1
quantity measured: chromatographic logP
Reply with just the number.

Here's what some known entries look like.
N#Cc1cncn1CC(O)(Cc1cccc(Cl)c1Cl)C1CCC1 (centres unmarked) [Example I-85] = 3.31
CSc1cncn1CC(O)(Cc1ccccc1Cl)C1(Cl)CC1 (centres unmarked) [Example I-22] = 2.08
OC(Cc1ccccc1F)(Cn1cncc1C1CC1)C1(Cl)CC1 (centres unmarked) [Example I-37] = 1.86
N#Cc1cncn1CC(O)(Cc1ccnnc1Cl)C1(Cl)CC1 (centres unmarked) [Example I-168] = 1.59
CC1(C(O)(Cc2cccc(F)c2F)Cn2cncc2C#N)CC1 (centres unmarked) [Example I-144] = 2.75

Query: chromatographic logP; subject: N#Cc1cncn1CC(O)(Cc1ccccc1Cl)CC1CC1 (centres unmarked) [Example I-84]
2.84

Query: chromatographic logP; subject: N#Cc1cncn1CC(O)(Cc1ccnc(Cl)c1F)C1(Cl)CC1 (centres unmarked) [Example I-152]
2.25

Query: chromatographic logP; subject: N#Cc1cncn1CC(O)(Cc1ccc(F)c(F)c1)C1(Cl)CC1 (centres unmarked) [Example I-109]
2.78

Query: chromatographic logP; subject: OC(Cc1c(Cl)ccnc1Cl)(Cn1cncc1Cl)C1(Cl)CC1 (centres unmarked) [Example I-11]
2.02

Query: chromatographic logP; subject: OC(Cc1ccccc1Cl)(Cn1cncc1I)C1(Cl)CC1 (centres unmarked) [Example I-14]
2.14

Query: chromatographic logP; subject: N#Cc1cncn1CC(O)(Cc1ccc(F)c(Cl)c1F)C1(Cl)CC1 (centres unmarked) [Example I-101]
3.17

---

- test: Measurement of LogP values by HPLC on reversed phase columns (EEC directive 79/831 Annex V.A8)
- Assay type: physicochemical
- condition info: method [a]: LC-UV, acidic range, 0.1% formic acid in water and acetonitrile as eluent; Table 1
quantity measured: chromatographic logP
Reply with just the number.

Here's what some known entries look like.
Cc1cncn1CC(O)(Cc1cccnc1Cl)C1(Cl)CC1 (stereo not drawn) = 1.22
N#Cc1cncn1CC(O)(Cc1ccnc(Cl)c1Cl)C1(Cl)CC1 (stereo not drawn) = 2.47

For the next question, use this compound.
Query: chromatographic logP; subject: N#Cc1cncn1CC(O)(Cc1ccc(F)cc1F)C1(Cl)CC1 (stereo not drawn)
2.78

---

Consider the following compounds and their measured Botrytis cinerea ED50 value in ppm readings.
- System: Botrytis cinerea
- test: In vitro test for the calculation of the ED50-value with microorganisms, Example Q4: Botrytis cinerea
- Format: cell-based
- condition info: liquid culture, spore suspension, 4 to 7 days incubation, spectrometric measurement of mycelium growth
Quick note: give the figure in ppm, leave out the unit.

Here's what some known entries look like.
OC(Cc1ccc(Cl)cc1F)(Cn1ccnc1)C1(Cl)CC1 (racemic) [reference compound] = 0.53
OC(Cc1ccc(Cl)cc1F)(Cn1cncc1Cl)C1(Cl)CC1 (stereo not shown) = 0.02
N#Cc1cncn1CC(O)(Cc1ccc(Cl)cc1F)C1(Cl)CC1 (stereo not shown) = 0.26

For the next question, use this compound.
Query: Botrytis cinerea ED50 value in ppm; subject: OC(Cc1ccc(Cl)cc1F)(Cn1cncc1Br)C1(Cl)CC1 (stereo not shown)
0.08

---

Consider the following compounds and their measured chromatographic logP readings.
- test: Measurement of LogP values by HPLC on reversed phase columns (EEC directive 79/831 Annex V.A8)
- Type: physicochemical
- condition info: method [a]: LC-UV, acidic range, 0.1% formic acid in water and acetonitrile as eluent; Table 1
Reply with just the number.

Here's what some known entries look like.
OC(Cc1ccc(F)c(F)c1)(Cn1cncc1Cl)C1(Cl)CC1 (centres unmarked) = 2.23
N#Cc1cncn1CC(O)(Cc1cccc(Cl)c1Cl)C1(Cl)CC1 (centres unmarked) = 3.25
CC1(C(O)(Cc2ccc(F)c(F)c2F)Cn2cncc2C#N)CC1 (centres unmarked) = 2.82
OC(Cc1ccc(F)cc1)(Cn1cncc1Cl)C1(Cl)CC1 (centres unmarked) = 2.13

Query: chromatographic logP; subject: O=C(Cc1ccccc1)c1cncn1CC(O)(Cc1ccccc1)C1(Cl)CC1 (centres unmarked)
3.56

---

Consider the following compounds and their measured chromatographic logP readings.
- test: Measurement of LogP values by HPLC on reversed phase columns (EEC directive 79/831 Annex V.A8)
- Assay type: physicochemical
- condition info: method [a]: LC-UV, acidic range, 0.1% formic acid in water and acetonitrile as eluent; Table 1
Reply with just the number.

Here's what some known entries look like.
CC(C)C(O)(Cc1ccccc1Cl)Cn1cncc1C#N (centres unmarked) [Example I-82] = 2.67
N#Cc1cncn1CC(O)(Cc1ccccc1Cl)C1(Cl)CC1 (centres unmarked) [Example I-06] = 2.92
OC(Cc1ccccc1)(Cn1cncc1Cl)C1(Cl)CC1 (centres unmarked) [Example I-39] = 2.04
N#Cc1cncn1CC(O)(Cc1ccc(F)c(F)c1F)C1(F)CC1 (centres unmarked) [Example I-93] = 2.52

For the next question, use this compound.
Query: chromatographic logP; subject: Cc1ccc(CC(O)(Cn2cncc2Cl)C2(Cl)CC2)c(F)c1 (centres unmarked) [Example I-108]
2.34

---

- Tested on: Pyricularia oryzae
- test: whole plant or invertebrate
- Assay type: in vivo
- condition info: 192 h, read-out: efficacy
quantity measured: pest or weed control at 500 ppm

Query: pest or weed control at 500 ppm; subject: CC1(C(O)(Cc2cccc(F)c2F)Cn2cncc2C#N)CC1 (stereo not drawn)
70 to 79%

---

Consider the following molecules and their measured chromatographic logP readings.
- test: Measurement of LogP values by HPLC on reversed phase columns (EEC directive 79/831 Annex V.A8)
- Type: physicochemical
- condition info: method [a]: LC-UV, acidic range, 0.1% formic acid in water and acetonitrile as eluent; Table 1
Reply with just the number.

Here's what some known entries look like.
N#Cc1cncn1CC(O)(Cc1ccccc1F)C1(Cl)CC1 (centres unmarked) [Example I-34] = 2.64
OC(Cc1ccc(Br)cc1F)(Cn1cncc1Cl)C1(Cl)CC1 (centres unmarked) [Example I-44] = 2.64
OC(Cc1ccc(F)cc1Cl)(Cn1cncc1Cl)C1(Cl)CC1 (centres unmarked) [Example I-08] = 2.47
N#Cc1cncn1CC(O)(Cc1ccc(F)cc1)C1(Cl)CC1 (centres unmarked) [Example I-157] = 2.75

For the next question, use this molecule.
Query: chromatographic logP; subject: CC(C)(C)CC(O)(Cc1ccccc1Cl)Cn1cncc1C#N (centres unmarked) [Example I-83]
3.55

Attribution: patent US10231453B2
